Listed next: entries and their corresponding solvation free energy, 298 K.
- Assay: solvent given as SMILES
- Assay setup: in CCCCO
Readout: solvation free energy, 298 K (kcal/mol)

INSERT INTO results (molecule, result_units, result_number) VALUES
  ('ClC(Cl)(Cl)Cl', 'kcal/mol', -3.87),
  ('CC(C)(C)Cl', 'kcal/mol', -3.08),
  ('COC(=O)c1ccc(O)cc1', 'kcal/mol', -12.1),
  ('CC(C)OC(C)C', 'kcal/mol', -3.75),
  ('ClCCl', 'kcal/mol', -3.29),
  ('CC(C(=O)O)c1ccc(-c2ccccc2)c(F)c1 (stereo not drawn)', 'kcal/mol', -15.7),
  ('O=C1c2ccccc2C(=O)c2c(Cl)cccc21', 'kcal/mol', -12.8),
  ('CC(C)CC(C)C', 'kcal/mol', -3.5),
  ('Cc1ccccc1', 'kcal/mol', -4.52),
  ('O=C(O)CCCCCCCCC(=O)O', 'kcal/mol', -17.1),
  ('[N-]=[N+]=O', 'kcal/mol', -0.55),
  ('C=CCCC', 'kcal/mol', -2.65),
  ('c1ccc2c(c1)Cc1ccccc1O2', 'kcal/mol', -9.53),
  ('O=C=O', 'kcal/mol', -0.4),
  ('CCCO', 'kcal/mol', -5.22),
  ('O=C(O)c1cc([N+](=O)[O-])cc([N+](=O)[O-])c1', 'kcal/mol', -14),
  ('CN', 'kcal/mol', -2.89),
  ('CCCCCCCCCCCCCCCCCCCCCCCC', 'kcal/mol', -13.9),
  ('O=O', 'kcal/mol', 0.93),
  ('CC(C)CO', 'kcal/mol', -5.74),
  ('ClCCCl', 'kcal/mol', -3.98),
  ('O=C(O)CCCCC(=O)O', 'kcal/mol', -13.2),
  ('c1ccc2c(c1)-c1cccc3cccc-2c13', 'kcal/mol', -11.5),
  ('C=C(C)C1CCC2(CO)CCC3(C)C(CCC4C5(C)CCC(O)C(C)(C)C5CCC43C)C12 (stereo not drawn)', 'kcal/mol', -28),
  ('O=[N+]([O-])c1ccc(CCl)cc1', 'kcal/mol', -8.49),
  ('CCCC(C)C', 'kcal/mol', -3.12),
  ('CCBr', 'kcal/mol', -3.03),
  ('FS(F)(F)(F)(F)F', 'kcal/mol', 0.26);
